# Tested on: HEK293T
# PROTOCOL_SUMMARY: plasma membrane surface immunostaining intensity (anti-HA, deep receptor scanning) (arbitrary fluorescence units); higher = higher plasma membrane expression
# RUN_CONDITIONS: GPCR class: A
QUANTITY_KIND: plasma membrane surface immunostaining intensity
Answers are plain numbers.

Some solved cases for reference:
MELAVGNLSEGNASWPEPPAPEPGPLFGIGVENFVTLVVFGLIFALGVLGNSLVITVLARSKPGKPRSTTNLFILNLSIADLAYLLFCIPFQATVYALPTWVLGAFICKFIHYFFTVSMLVSIFTLAAMSVDRYVAIVHSRRSSSLRVSRNALLGVGCIWALSIAMASPVAYHQGLFHPRASNQTFCWEQWPDPRHKKAYVVCTFVFGYLLPLLLICFCYAKVLNHLHKKLKNMSKKSEASKKKTAQTVLVVVVVFGISWLPHHIIHLWAEFGVFPLTPASFLFRITAHCLAYSNSSVNPIIYAFLSENFRKAYKQVFKCHIRKDSHLSDTKESKSRIDTPPSTNCTHV [GALR1]; 6490
METNSSLPTNISGGTPAVSAGYLFLDIITYLVFAVTFVLGVLGNGLVIWVAGFRMTHTVTTISYLNLAVADFCFTSTLPFFMVRKAMGGHWPFGWFLCKFVFTIVDINLFGSVFLIALIALDRCVCVLHPVWTQNHRTVSLAKKVIIGPWVMALLLTLPVIIRVTTVPGKTGTVACTFNFSPWTNDPKERINVAVAMLTVRGIIRFIIGFSAPMSIVAVSYGLIATKIHKQGLIKSSRPLRVLSFVAAAFFLCWSPYQVVALIATVRIRELLQGMYKEIGIAVDVTSALAFFNSCLNPMLYVFMGQDFRERLIHALPASLERALTEDSTQTSDTATNSTLPSAEVELQAK [FPR1]; 6450
MAQQWSLQRLAGRHPQDSYEDSTQSSIFTYTNSNSTRGPFEGPNYHIAPRWVYHLTSVWMIFVVIASVFTNGLVLAATMKFKKLRHPLNWILVNLAVADLAETVIASTISVVNQVYGYFVLGHPMCVLEGYTVSLCGITGLWSLAIISWERWMVVCKPFGNVRFDAKLAIVGIAFSWIWAAVWTAPPIFGWSRYWPHGLKTSCGPDVFSGSSYPGVQSYMIVLMVTCCITPLSIIVLCYLQVWLAIRAVAKQQKESESTQKAEKEVTRMVVVMVLAFCFCWGPYAFFACFAAANPGYPFHPLMAALPAFFAKSATIYNPVIYVFMNRQFRNCILQLFGKKVDDGSELSSASKTEVSSVSSVSPA [OPN1MW3]; 288

Kindly review the next sequence as well.
Query: Provide the documented plasma membrane surface immunostaining intensity with HEK293T as the system for MTSNFSQPVVQLCYEDVNGSCIETPYSPGSRVILYTAFSFGSLLAVFGNLLVMTSVLHFKQLHSPTNFLIASLACADFLVGVTVMLFSMVRTVESCWYFGAKFCTLHSCCDVAFCYSSVLHLCFICIDRYIVVTDPLVYATKFTVSVSGICISVSWILPLTYSGAVFYTGVNDDGLEELVSALNCVGGCQIIVSQGWVLIDFLLFFIPTLVMIILYSKIFLIAKQQAIKIETTSSKVESSSESYKIRVAKRERKAAKTLGVTVLAFVISWLPYTVDILIDAFMGFLTPAYIYEICCWSAYYNSAMNPLIYALFYPWFRKAIKLILSGDVLKASSSTISLFLE [TAAR8]
Response: 352
